# tested.on: human AChE (hAChE; EC 3.1.1.7) (Homo sapiens)
# Sequence (P22303 32-614): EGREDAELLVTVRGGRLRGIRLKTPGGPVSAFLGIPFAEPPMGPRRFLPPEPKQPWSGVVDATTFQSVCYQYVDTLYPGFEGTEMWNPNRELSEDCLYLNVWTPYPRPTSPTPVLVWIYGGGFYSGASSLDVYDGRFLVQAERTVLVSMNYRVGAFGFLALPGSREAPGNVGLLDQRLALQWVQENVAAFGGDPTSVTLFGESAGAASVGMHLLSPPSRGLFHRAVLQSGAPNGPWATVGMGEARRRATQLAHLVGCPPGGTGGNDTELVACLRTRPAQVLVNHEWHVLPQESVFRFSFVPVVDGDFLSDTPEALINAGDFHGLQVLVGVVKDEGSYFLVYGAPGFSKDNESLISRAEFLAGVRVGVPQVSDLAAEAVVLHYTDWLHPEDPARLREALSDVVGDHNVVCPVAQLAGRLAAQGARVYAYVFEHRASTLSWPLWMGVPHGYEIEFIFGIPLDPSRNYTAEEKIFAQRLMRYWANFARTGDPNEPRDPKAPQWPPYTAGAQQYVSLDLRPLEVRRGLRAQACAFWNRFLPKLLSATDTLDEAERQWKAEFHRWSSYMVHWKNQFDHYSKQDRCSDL
# assay: biochemical
# measurement.conditions: ratio IC50(hBChE)/IC50(hAChE)
The following compounds are listed with their measured SI (hBChE/hAChE) values.
// print number alone

Observe how each entry below is paired with its result.
- C#CCN(CC#C)CCCNc1c2c(nc3cc(Cl)ccc13)CCCC2.Cl.Cl: 2.79
- C#CCN(CC#C)CCCNc1c2c(nc3ccc(OC)cc13)CCCC2.Cl.Cl: 0.53
- C=CCN(CC=C)c1c2c(nc3ccc(Oc4ccccc4)cc13)CCCC2.Cl: 1.38
- C=CCN(CC=C)c1c2c(nc3ccccc13)CCCC2.Cl: 1.45
- C#CCNCCCNc1c2c(nc3ccccc13)CCCC2.Cl.Cl: 0.98

### Prompt Item C#CCN(CC#C)c1c2c(nc3ccc(Oc4ccccc4)cc13)CCCC2.Cl with human AChE (hAChE; EC 3.1.1.7) (Homo sapiens) - SI (hBChE/hAChE)?
### Response 4.23

### Prompt Provide value of SI (hBChE/hAChE) for this record tested with human AChE (hAChE; EC 3.1.1.7) (Homo sapiens): C#CCNCCCNc1c2c(nc3ccc(Oc4ccccc4)cc13)CCCC2.Cl.Cl
### Response 1.02

### Prompt So what SI (hBChE/hAChE) did C#CCN(CC#C)CCCNc1c2c(nc3ccccc13)CCCC2.Cl.Cl get with human AChE (hAChE; EC 3.1.1.7) (Homo sapiens)?
### Response 0.39
